- target-system: T1, recombinant human SOD1 (biomol, Hamburg) (human, UniProt P00441 2-154, limits assumed)
- T1 construct: Bought protein; also called recombinant human superoxide dismutase 1; Recombinant SOD1
- T1 sequence (P00441 2-154 limits assumed): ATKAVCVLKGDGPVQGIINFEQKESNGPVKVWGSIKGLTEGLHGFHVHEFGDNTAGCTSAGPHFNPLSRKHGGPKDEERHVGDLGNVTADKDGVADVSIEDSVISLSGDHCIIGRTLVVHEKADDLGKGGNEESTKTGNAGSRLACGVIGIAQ
- test-details: direct ELISA, recombinant human SOD1 coated at 0.1 µg/ml
Listed below: EC50 values for each entry.
Expressed in nM, but write only the number.

NI-204.10A8 (antibody, human IgG1, V domains shown) VH: EVQLVESGAEVKEPGSSVRVSCKTSGGSFNRHVITWVRQAPGQGLEWMGEIIPFFGTPKYAPKFQGRVTIIADASTSTFFLDVKSLTSEDTALYFCWIVVVSVVQRREDFWGQGILVTVSS VL: EIVLTQSPSSLSASVGDTVTITCRSSQNISNYLSWFQHKPGKAPRILVYAASTLQTGVPSRFSGRGSGTIFTLSITSLQSEDYATYYCQQNDKIPRTFGQGTKVEIK; 95.9
NI-204.12G7 (antibody, human IgG1, V domains shown) VH: EVQLVESGAEVKKPGASVTLSCKASGYTFTAYYIHWVRQAREQGLEWMGVINPSTGTTFYAQNFPDRVSVTRDTSTSTVFMELHNLKSEDTAVYYCARAISEHGSGSYSPYYWGQGTLVTVSS VL: SYVLTQPPSVSVSLGQMAAITCSGEALPKKYGYWYQQKPGQVPVLLIYRDVERPSGVPDRFSGSSSGTMVTLTISGVQAEDEADYYCLSADSSGTWVFGGGTKLTVL; 75.9
NI-204.10D12 (antibody, V domains shown) VH: EVQLVESGGDLVRPGGSLRLSCVASGFTFSNYWMHWVRQAPGQRPVWVSRTNTDGRNTAYADYAKGRFTISRDNAKSTLYLQLNSLRAEDTAVYFCARLRRNVADQITHNYYMDVWGKGTLVTVSS VL: EIVLTQSPGSLAVSLGERATINCKSSQTVLYNNKNYLAWYQQKPGQPPKLLISWASSRESGVPDRFSGSGSGTDFTLTISSLQAEDVAVYYCQHYYGTPVTFGGGTKVEIK; 606

Query: Name the recorded EC50 for NI-204.9F6 (antibody, human IgG1, V domains shown, also called NI-209.9F6) VH: EVQLVESGGGLVQPGGSLRLSCAVSGFTFDTFAMSWVRQAPGKGLEWVSAITASSSKTYYADSVKGRFTISRDNSRNTVYLRLSSLRADDTAVYFCARPKGAHSGLYIESAFDLWGPGTMVTVSS VL: SYVLTQPPSVSVSAGQTASITCSADMLGDTYVSWYQKRPGQSPVLLIYQDSKRPSEIPERFSGSSSEDTATLTITGTQALDEAAYYCQVWDRRTTTYVFGPGTEVTVL .
Reply: 451
